method-description: A549 NSCLC cell proliferation inhibitors – ATP luminescence, human non-small cell lung line, primary screen (AID 371);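 also: compound exposure lasted 72 h before the ATP read; 0% = untreated cell signal and 100% = no luminescence left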
condition-context: at 10 µM
Screen size: about 3,300 compounds; about 280 (8.5%) were called active.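 The calls were made as follows: active = mean growth inhibition over the two runs of 50% or more; inactive = mean growth inhibition under 50%.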 This is one part of a sample in which actives are shown more often than they occur.
Pick one and only one: active, inactive

[[record]]
compound = "Cc1ccc(S(=O)(=O)N(CC(O)CN(C)C)c2ccccc2)cc1 (stereo not given)"
class_name = "inactive"

[[record]]
compound = "CCCCCC(=O)O[C@]1(C(C)=O)CC[C@H]2[C@@H]3CCC4=CC(=O)CC[C@]4(C)[C@H]3CC[C@@]21C"
class_name = "active"

[[record]]
compound = "O=C1OC(N2CCN(C/C=C/c3ccccc3)CC2)c2ccccc21 (stereo not given)"
class_name = "inactive"


Request: Entry COc1ccc2c(c1)[nH]c1c(=O)n(CCN(C)C)cnc12 : call = ?
Result: inactive

Request: Entry CCCCC(=O)O[C@]1(C(=O)CO)CC[C@H]2[C@@H]3CCC4=CC(=O)CC[C@]4(C)[C@H]3[C@@H](O)C[C@@]21C : call = ?
Result: inactive

====

Catalogue of molecules with associated growth inhibition
method-description: A549 NSCLC cell proliferation inhibitors – ATP luminescence, human non-small cell lung line, primary screen (AID 371)
condition-context: at 10 µM, active compounds read high
Out of some 3,300 compounds screened, about 280 (8.5%) were called active. The sample as a whole holds a higher share of actives than the screen did.
Report the value in % with no unit label.

Record excerpt, results attached:
[[record]]
molecule = "Nc1nnnn1N=C1CCCCC1"
measurement_label = "growth inhibition"
scale_unit = "%"
numeric_readout = -2.31

[[record]]
molecule = "Cc1cn([C@H]2C[C@H](N=[N+]=[N-])[C@@H](CO)O2)c(=O)[nH]c1=O"
measurement_label = "growth inhibition"
scale_unit = "%"
numeric_readout = 7.02

[[record]]
molecule = "Cc1ccc(C(C)C)c(OCCNc2nc3c(c(=O)n(C)c(=O)n3C)n2C)c1"
measurement_label = "growth inhibition"
scale_unit = "%"
numeric_readout = 20.2


molecule CC(C(=O)N(C)C)N(C#N)c1nc(N(C)C)nc(N(C)C)n1 (configuration not stated) , growth inhibition observed: 3.51

====

Catalogue of molecules with associated growth inhibition
method-description: A549 NSCLC cell proliferation inhibitors – ATP luminescence, human non-small cell lung line, primary screen (AID 371)
condition-context: at 10 µM, active compounds read high
The whole screen tested about 3,300 compounds, of which about 280 (8.5%) were called active. The entries come from a sample that favours actives as a whole.

[[record]]
molecule = "O=C(NCC(F)(F)F)Nc1nnc(C(F)(F)F)s1"
result = "17.9% (inactive)"

[[record]]
molecule = "COc1cccc(-c2nc(N3CCN(Cc4ccccc4)CC3)c3ccccc3n2)c1O"
result = "6.86% (inactive)"

[[record]]
molecule = "CCC(NC(=O)Nc1nnc(C(F)(F)F)s1)(C(F)(F)F)C(F)(F)F"
result = "81.7% (active)"

[[record]]
molecule = "c1ccc2c(N3CCCCC3)nc(N3CCCCC3)nc2c1"
result = "25.8% (inactive)"

[[record]]
molecule = "CCSc1nnc(NC(=O)C(C)(C(F)(F)F)C(F)(F)F)s1"
result = "61.8% (active)"


Consider the additional molecule presented here.
molecule CCCc1nnc(NC(=O)Nc2ccccc2OC)s1 , growth inhibition observed: 17.3% (inactive)

====

Catalogue of compounds with associated growth inhibition
method-description: A549 NSCLC cell proliferation inhibitors – ATP luminescence, human non-small cell lung line, primary screen (AID 371)
condition-context: at 10 µM, active compounds read high
About 280 (8.5%) of roughly 3,300 compounds were called active. What follows is part of a selection rich in actives, with near analogues and random picks from the rest.
Report the value in % with no unit label.

Record excerpt, results attached:
[[record]]
compound = "COCCc1ccc(OCC(O)CNC(C)C)cc1 (configuration not stated)"
scale_unit = "%"
numeric_readout = 1.47

[[record]]
compound = "OC(CNCCCN1CCCCC1)COc1ccccc1 (configuration not stated)"
scale_unit = "%"
numeric_readout = 4.57

[[record]]
compound = "COc1ccccc1-c1cc(-c2cc(Cl)ccc2O)n[nH]1"
scale_unit = "%"
numeric_readout = 15


compound Cn1ccnc1SCCC#N , growth inhibition observed: -0.21

compound N#Cc1ccc(-c2ccc(OCC(O)Cn3nnc4ccccc43)cc2)cc1 (configuration not stated) , growth inhibition observed: 57.7

compound CN=c1sc2ccccc2n1CC(O)COc1ccccc1 (configuration not stated) , growth inhibition observed: 25.3

compound CC1(C)NC(=O)N(CC(O)Cn2nnc3ccccc32)C1=O (configuration not stated) , growth inhibition observed: 8.44

====

method-description: A549 NSCLC cell proliferation inhibitors – ATP luminescence, human non-small cell lung line, primary screen (AID 371);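 also: compound exposure lasted 72 h before the ATP read; 0% = untreated cell signal and 100% = no luminescence left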
condition-context: at 10 µM, active compounds read high
Among all 3,300 compounds or so, about 280 (8.5%) were called active. The list comes from a sample in which actives are over-represented; it also holds close analogues and randomly drawn compounds.
measurement-label: growth inhibition (%)
Report the value in % with no unit label.

Record excerpt, results attached:
[[record]]
molecule = "Cc1cccc(-n2ncc3c(NCc4ccco4)ncnc32)c1"
numeric_readout = 63

[[record]]
molecule = "CO[C@H]1C[C@@H]2CC[C@@H](C)[C@@](O)(O2)C(=O)C(=O)N2CCCC[C@H]2C(=O)O[C@H]([C@H](C)C[C@@H]2CC[C@@H](O)[C@H](OC)C2)CC(=O)[C@H](C)C=C(C)[C@@H](O)[C@@H](OC)C(=O)[C@H](C)C[C@H](C)C=CC=CC=C1C"
numeric_readout = 65.2

[[record]]
molecule = "Cc1nc2sccn2c(=O)c1CCN1CCC(=C(c2ccccc2)c2ccc(F)cc2)CC1"
numeric_readout = 88.3


molecule Cc1cccc(C)c1NC(=O)C1CCCCN1C (stereo unspecified) , growth inhibition observed: -1.85

molecule Cc1ccc(S(=O)(=O)N2CCN(c3nc(C(C)C)c4c(c3C#N)CC(C)(C)OC4)CC2)cc1 , growth inhibition observed: 29.3

molecule CCOC(=O)CC(=O)CSc1nc(N)c(C#N)c(-c2ccc(Cl)cc2)c1C#N , growth inhibition observed: 5.46

molecule COc1cccc(C2=CC(c3ccccc3)n3ncnc3N2)c1 (stereo unspecified) , growth inhibition observed: 11.9

molecule C/C=C(/C(=C/C)c1ccc(O)cc1)c1ccc(O)cc1 , growth inhibition observed: 50.9

molecule Fc1ccc2[nH]c3c(N4CCN(Cc5ccc6c(c5)OCO6)CC4)ncnc3c2c1 , growth inhibition observed: 83.3

molecule Cc1cc2ccccc2cc(C)c1=O , growth inhibition observed: 9.2

molecule COc1ccccc1Nc1ncnc2c1cnn2-c1cccc(C)c1 , growth inhibition observed: 6.73

molecule CN(C)CCCN1c2ccccc2CCc2ccccc21 , growth inhibition observed: 16.1

====

method-description: A549 NSCLC cell proliferation inhibitors – ATP luminescence, human non-small cell lung line, primary screen (AID 371);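 also: compound exposure lasted 72 h before the ATP read; 0% = untreated cell signal and 100% = no luminescence left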
condition-context: at 10 µM, active compounds read high
In all, about 3,300 compounds went through this assay and about 280 (8.5%) were called active. The full list was thinned out, with actives kept by preference.
measurement-label: growth inhibition (%)
Report the value in % with no unit label.

[[record]]
compound = "CCCCCNc1nc(N2CCCC2)c2c(c1C#N)CCN(C)C2"
scale_unit = "%"
numeric_readout = 95.5

[[record]]
compound = "CCN1CCc2c(C#N)c(N3CCCCC3)nc(N3CCOCC3)c2C1"
scale_unit = "%"
numeric_readout = 4.36

[[record]]
compound = "O=C1CC(c2ccco2)CC(O)=C1C=Nc1cc(Cl)ccc1O (stereo unspecified)"
scale_unit = "%"
numeric_readout = 52.3

[[record]]
compound = "C=CCNc1nc(NCc2ccccc2)c(C#N)c2c1CN(C)CC2"
scale_unit = "%"
numeric_readout = 70.9

[[record]]
compound = "CC1(C)Cc2c(C#N)c(SCCC#N)nc(N3CCOCC3)c2CS1"
scale_unit = "%"
numeric_readout = 26.4


Consider the additional compound presented here.
compound Cn1c(=O)c2c3c(sc2n2c(SCc4ccccc4)nnc12)CCCC3 , growth inhibition observed: 8.25

====

method-description: A549 NSCLC cell proliferation inhibitors – ATP luminescence, human non-small cell lung line, primary screen (AID 371);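 also: compound exposure lasted 72 h before the ATP read; 0% = untreated cell signal and 100% = no luminescence left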
condition-context: at 10 µM, active compounds read high
Screen size: about 3,300 compounds; about 280 (8.5%) were called active. This is one part of a sample in which actives are shown more often than they occur.
measurement-label: growth inhibition (%)
Report the value in % with no unit label.

Record excerpt, results attached:
[[record]]
molecule = "O=c1c2ccccc2[nH]c(=S)n1CCN1CCC(=C(c2ccc(F)cc2)c2ccc(F)cc2)CC1"
measurement_label = "growth inhibition"
numeric_readout = 69.1

[[record]]
molecule = "Cc1cccc(OCc2nc(C)cc(=O)[nH]2)c1"
measurement_label = "growth inhibition"
numeric_readout = 1.95

[[record]]
molecule = "CCCCOc1ccccc1C(=O)NCCCC(=O)O"
measurement_label = "growth inhibition"
numeric_readout = -2.38


molecule COC(=O)/C(C#N)=C1/SC=C(C)N1c1ccccc1 , growth inhibition observed: 4.54

molecule CCOc1ccc(/C(O)=C2/C(=O)C(=O)N(c3nc(C)c(C)s3)C2c2ccco2)cc1 (configuration not stated) , growth inhibition observed: 18.5

molecule COC1=CC(=O)CC(C)C12Oc1c(Cl)c(OC)cc(OC)c1C2=O (configuration not stated) , growth inhibition observed: 51.2
